Ref: paper PMC6018666

Molecular target: hnRNP A1 RRM1 (UniProt P09651 1-97)
Sequence (P09651 1-97): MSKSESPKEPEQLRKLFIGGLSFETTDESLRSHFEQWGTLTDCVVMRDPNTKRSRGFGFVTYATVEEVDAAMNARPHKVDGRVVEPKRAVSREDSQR
Assay: ITC; N=1.01; ITC: 20 mM Na phosphate pH 6.5, 100 mM NaCl, no DTT, 25 C; EMSA: 100 mM KCl, 20% glycerol, 0.2 mM EDTA, 100 mM Tris pH 8.0, 0.5 mM DTT, 0.5 mM ATP, 20 mM creatine phosphate, 3.2 mM MgCl2, 4 C; footprint: 12 mM Tris-HCl pH 7.5, 48 mM NaCl, 1.2 mM MgCl2, 37 C
Settings: protein: recombinant; tags: His tag removed by TEV; single strand
test.readout: pKd
The read-out pKd is expressed as -log10 of concentration in moles per litre.

Can you look up the measured pKd of AGUAGAU (ssRNA) [7-mer] for me? 4.69
